Data origin: patent CN1649900A

- System: Y1 scFv (human single-chain Fv antibody fragment Y1)
- Sequence (scFv, as listed by the source): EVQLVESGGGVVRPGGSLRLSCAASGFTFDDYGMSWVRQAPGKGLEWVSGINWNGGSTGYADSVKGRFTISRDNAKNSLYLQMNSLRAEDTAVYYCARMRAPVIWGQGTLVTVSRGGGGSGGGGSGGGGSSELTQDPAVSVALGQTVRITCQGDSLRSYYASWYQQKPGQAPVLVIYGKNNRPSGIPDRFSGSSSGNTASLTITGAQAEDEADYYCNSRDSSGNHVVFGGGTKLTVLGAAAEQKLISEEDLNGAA
- Test details: competition FACS on washed platelets; peptide 2.5μM
Where no end group is shown, it is not given here. [ ]: non-standard residue; d: D form. sY = N[C@@H](Cc1ccc(OS(=O)(=O)O)cc1)C(=O)O
Measured metric: residual binding of Y1 (% of baseline, Geo mean) (%)
API: value field is a number in %; no unit string.

Please fill in: residual binding of Y1 (% of baseline, Geo mean) reported for TDL[sY]D[sY][sY]PEEDTE [P-2-S, sulfated synthetic peptide of GPIbα residues 273-285] = 61

Please fill in: residual binding of Y1 (% of baseline, Geo mean) reported for REEGRQHFFLLEGRSSYS [EGR negative control peptide] = 96

Please fill in: residual binding of Y1 (% of baseline, Geo mean) reported for GDEGDTDL[sY]D[sY][sY]P [P-3-S, sulfated synthetic peptide of GPIbα residues 268-280] = 82

Please fill in: residual binding of Y1 (% of baseline, Geo mean) reported for GDEGDTDL[sY]D[sY][sY]PEEDTE [P-1-S, sulfated synthetic peptide of GPIbα residues 268-285] = 41
